assay: Kinetic solubility in biorelevant media; assay type: physicochemical; details: sgf, pH 1.2, SGF pH 1.2, 1 h, 37 °C
MEASURE: solubility at 1 h (µg/mL)
Answer with a number only, understood to be in µg/mL.

Query :: Provide only the value of recorded solubility at 1 h for Cn1c2nc(Cc3cc[nH]n3)sc2c2cnn(Cc3cccc(N)n3)c(=O)c21 [Form A]
Result :: 2840

====

assay: Kinetic solubility in biorelevant media; format: physicochemical; conditions: sgf, pH 1.2, SGF pH 1.2, 24 h, 37 °C
MEASURE: solubility at 24 h (µg/mL)
Report the figure in µg/mL without appending any unit label.

Query :: Output solubility at 24 h of Cn1c2nc(Cc3cc[nH]n3)sc2c2cnn(Cc3cccc(N)n3)c(=O)c21 [Form A]
Result :: 2880
